# testedSystem: human PD-L1 / Human PD-1 (Homo sapiens (Human))
# Sequence (Q9NZQ7 19-239): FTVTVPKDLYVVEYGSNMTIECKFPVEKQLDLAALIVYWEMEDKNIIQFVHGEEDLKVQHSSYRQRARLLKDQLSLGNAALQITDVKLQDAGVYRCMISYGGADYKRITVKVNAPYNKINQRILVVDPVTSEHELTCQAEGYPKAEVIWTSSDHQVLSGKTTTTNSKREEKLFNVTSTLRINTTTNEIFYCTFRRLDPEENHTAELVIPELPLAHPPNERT
# testDetails: Enzyme-Linked Immunosorbent Assay (ELISA), PD-1/PD-L1 binding
# particulars: plate-coated human PD-L1, biotinylated human PD-1
outcomeMeasure: IC50

Give the measured IC50 of `CCOc1cc(O[C@H]2CCc3c(-c4cccc(OCCCN5[C@H](C)CC[C@H]5C)c4C)cccc32)c(Cl)cc1CN1CCC(O)CC1` .
5 to 500 nM

Moving on to `CCOc1cc(O[C@H]2CCc3c(-c4cccc(OCCCN5CC[C@@H](O)C5)c4C)cccc32)c(Cl)cc1CN[C@@H](CO)C(=O)OC(C)C`
5 to 500 nM

Moving on to Cc1c(OCCCN2CC(F)C2)cccc1-c1cccc2c1CC[C@@H]2Oc1cc(OCc2cncc(C#N)c2)c(CNCC2CCC(=O)N2)cc1Cl (stereo partly shown)
< 5 nM

Moving on to `Cc1c(OCCCN2CCC(CO)CC2)cccc1-c1cccc2c1CC[C@@H]2Oc1cc(OCc2cncc(C#N)c2)c(CN[C@H](C(=O)O)[C@@H](C)O)cc1Cl`
< 5 nM

Moving on to `COc1cc(O[C@H]2CCc3c(-c4cccc(OCCCN5CCC(C)(F)CC5)c4C)cccc32)c(Cl)cc1CN[C@H]1CCC(=O)NC1`
5 to 500 nM

Moving on to `N#Cc1cncc(COc2cc(O[C@H]3CCc4c(-c5cccc(OCCCN6CCC(F)CC6)c5Cl)cccc43)c(Cl)cc2CN[C@H]2CCOC[C@H]2O)c1`
< 5 nM

Moving on to `CN(Cc1cc(Cl)c(O[C@H]2CCc3c(-c4cccc(OCCCN5CC(O)C5)c4Cl)cccc32)cc1OCc1cncc(C#N)c1)[C@@](C)(CO)C(=O)O`
< 5 nM

Moving on to N#Cc1cncc(COc2cc(O[C@H]3CCc4c(-c5cccc(OCCCN6CC(O)C6)c5Cl)cccc43)c(Cl)cc2CN2CCC3(C2)NC(=O)NC3=O)c1 (stereo partly shown)
5 to 500 nM

Moving on to `N#Cc1cncc(COc2cc(O[C@H]3CCc4c(-c5cccc(OCCCN6CC(O)C6)c5Cl)cccc43)c(Cl)cc2CN2CC3(CC(O)C3)C2)c1`
< 5 nM

Moving on to Cc1c(OCCCN2CCC(F)CC2)cccc1-c1cccc2c1CC[C@@H]2Oc1cc(OCc2cncc(C#N)c2)c(CNCC2CCC(=O)N2C)cc1Cl (stereo partly shown)
5 to 500 nM

Moving on to `CCOc1cc(O[C@H]2CCc3c(-c4cccc(OCCCN5CCC5(C)C)c4C)cccc32)c(Cl)cc1CN(CC)CCC(=O)O`
5 to 500 nM

Moving on to `N#Cc1cncc(COc2cc(O[C@H]3CCc4c(-c5cccc(OCCCN6CC(F)(F)C6)c5Cl)cccc43)c(Cl)cc2CNC[C@@H]2CCC(=O)N2)c1`
5 to 500 nM

Moving on to `N#Cc1cncc(COc2cc(O[C@H]3CCc4c(-c5cccc(OCCCN6CC(O)C6)c5Cl)cccc43)c(Cl)cc2CN[C@@H]2CCCC[C@@H]2O)c1`
< 5 nM

Origin of values: patent US10919852B2
